# Test system: houseflies
# RUN DESCRIPTION: whole plant or invertebrate
# COND: Musca domestica, topical, 24 h, read-out: Houseflies LD50
LD50 less than 8 mg/kg is fulfilled; LD50 greater than or equal to 8 mg/kg is not fulfilled.

These recorded examples may help you get a feel for the data.
>>> df
                              smiles_record    class_label
0  CN(Sc1ccc(C(C)(C)C)cc1)C(=O)Oc1cccc2c1OC(C)(C)C2      fulfilled
1  CC(C)c1ccccc1SN(C)C(=O)Oc1cccc2c1OC(C)(C)C2  not fulfilled
2  Cc1cccc(SN(C)C(=O)Oc2cccc3c2OC(C)(C)C3)c1      fulfilled
3  CN(Sc1ccc(C#N)cc1)C(=O)Oc1cccc2c1OC(C)(C)C2  not fulfilled

Now for a further compound.
Determine if Cc1cc(C(C)(C)C)ccc1SN(C)C(=O)Oc1cccc2c1OC(C)(C)C2 shows LD50 strictly lower than 8 mg/kg.
fulfilled
